The measured values listed here are drawn from the MegaScale stability set (Tsuboyama et al. 2023).

B1: EHEE_rd2_0196 (parent)
chain: TETRTFDSEEEAKKAQKEAEKQGRTVTITRRDDRWEVRFD

# Variants of: B1
# assayMethodText: folding stability dG (cDNA display proteolysis); higher = more stable
# conditionParameters: PBS, room temperature
Classify as follows. Reported folding stability dG greater than or equal to 10 kJ/mol: condition met. Reported folding stability dG below: condition not met.

[[record]]
residuechange = "F6L"
discretelabel = "condition not met"

[[record]]
residuechange = "K13C"
discretelabel = "condition met"

[[record]]
residuechange = "F39D"
discretelabel = "condition met"

[[record]]
residuechange = "E10H"
discretelabel = "condition met"

[[record]]
residuechange = "R4I"
discretelabel = "condition met"

[[record]]
residuechange = "T3D"
discretelabel = "condition not met"

[[record]]
residuechange = "K13T"
discretelabel = "condition met"

[[record]]
residuechange = "T27L"
discretelabel = "condition not met"

[[record]]
residuechange = "A15D"
discretelabel = "condition not met"

[[record]]
residuechange = "R24W"
discretelabel = "condition met"

[[record]]
residuechange = "E10K"
discretelabel = "condition met"

[[record]]
residuechange = "T29P"
discretelabel = "condition not met"

[[record]]
residuechange = "K14E"
discretelabel = "condition met"

[[record]]
residuechange = "T25Q"
discretelabel = "condition met"

[[record]]
residuechange = "R38I"
discretelabel = "condition met"

[[record]]
residuechange = "A15I"
discretelabel = "condition met"

[[record]]
residuechange = "V37S"
discretelabel = "condition not met"

[[record]]
residuechange = "A12R"
discretelabel = "condition not met"

[[record]]
residuechange = "Q16M"
discretelabel = "condition met"

[[record]]
residuechange = "D32Y"
discretelabel = "condition not met"

[[record]]
residuechange = "G23Y"
discretelabel = "condition not met"

[[record]]
residuechange = "R4A"
discretelabel = "condition met"

[[record]]
residuechange = "T27Q"
discretelabel = "condition met"

[[record]]
residuechange = "K14L"
discretelabel = "condition met"

[[record]]
residuechange = "D40G"
discretelabel = "condition met"

[[record]]
residuechange = "Q22G"
discretelabel = "condition met"

[[record]]
residuechange = "T25H"
discretelabel = "condition met"

[[record]]
residuechange = "R38M"
discretelabel = "condition met"

[[record]]
residuechange = "E20S"
discretelabel = "condition met"

[[record]]
residuechange = "R24G"
discretelabel = "condition not met"

[[record]]
residuechange = "E10I"
discretelabel = "condition met"

[[record]]
residuechange = "V26W"
discretelabel = "condition not met"

[[record]]
residuechange = "R30A"
discretelabel = "condition not met"

[[record]]
residuechange = "A15Y"
discretelabel = "condition met"

[[record]]
residuechange = "W35F"
discretelabel = "condition not met"

[[record]]
residuechange = "Q16W"
discretelabel = "condition met"

[[record]]
residuechange = "K21F"
discretelabel = "condition met"

[[record]]
residuechange = "T5F"
discretelabel = "condition met"

[[record]]
residuechange = "T5Y"
discretelabel = "condition met"

[[record]]
residuechange = "E9S"
discretelabel = "condition not met"

[[record]]
residuechange = "R24K"
discretelabel = "condition met"

[[record]]
residuechange = "R38D"
discretelabel = "condition not met"

[[record]]
residuechange = "Q16C"
discretelabel = "condition met"

[[record]]
residuechange = "R4D"
discretelabel = "condition not met"

[[record]]
residuechange = "A12Y"
discretelabel = "condition not met"

[[record]]
residuechange = "D33T"
discretelabel = "condition not met"

[[record]]
residuechange = "W35M"
discretelabel = "condition not met"

[[record]]
residuechange = "A19F"
discretelabel = "condition met"

[[record]]
residuechange = "K17Q"
discretelabel = "condition met"

[[record]]
residuechange = "D32W"
discretelabel = "condition not met"

[[record]]
residuechange = "E20Q"
discretelabel = "condition met"

[[record]]
residuechange = "E9G"
discretelabel = "condition not met"

[[record]]
residuechange = "R24P"
discretelabel = "condition not met"

[[record]]
residuechange = "E2I"
discretelabel = "condition met"

[[record]]
residuechange = "T3H"
discretelabel = "condition met"

[[record]]
residuechange = "V26T"
discretelabel = "condition met"

[[record]]
residuechange = "F39I"
discretelabel = "condition met"

[[record]]
residuechange = "D7A"
discretelabel = "condition met"

[[record]]
residuechange = "K14T"
discretelabel = "condition met"

[[record]]
residuechange = "K13N"
discretelabel = "condition met"

[[record]]
residuechange = "K21M"
discretelabel = "condition met"

[[record]]
residuechange = "K21Q"
discretelabel = "condition met"

[[record]]
residuechange = "A12S"
discretelabel = "condition not met"

[[record]]
residuechange = "F39W"
discretelabel = "condition met"

[[record]]
residuechange = "I28Y"
discretelabel = "condition not met"

[[record]]
residuechange = "D32A"
discretelabel = "condition met"

[[record]]
residuechange = "E20V"
discretelabel = "condition met"

[[record]]
residuechange = "R31P"
discretelabel = "condition not met"

[[record]]
residuechange = "V26E"
discretelabel = "condition not met"

[[record]]
residuechange = "E20F"
discretelabel = "condition met"

[[record]]
residuechange = "R4T"
discretelabel = "condition met"

[[record]]
residuechange = "Q22H"
discretelabel = "condition met"

[[record]]
residuechange = "K21P"
discretelabel = "condition not met"

[[record]]
residuechange = "A19K"
discretelabel = "condition not met"

[[record]]
residuechange = "D33Y"
discretelabel = "condition not met"

[[record]]
residuechange = "K17F"
discretelabel = "condition met"

[[record]]
residuechange = "T3A"
discretelabel = "condition met"

[[record]]
residuechange = "A12K"
discretelabel = "condition not met"

[[record]]
residuechange = "K17M"
discretelabel = "condition met"

[[record]]
residuechange = "T5E"
discretelabel = "condition met"

[[record]]
residuechange = "K14N"
discretelabel = "condition met"

[[record]]
residuechange = "T5M"
discretelabel = "condition met"

[[record]]
residuechange = "K13R"
discretelabel = "condition met"

[[record]]
residuechange = "F39N"
discretelabel = "condition not met"

[[record]]
residuechange = "R38S"
discretelabel = "condition met"

[[record]]
residuechange = "Q16P"
discretelabel = "condition not met"

[[record]]
residuechange = "E18V"
discretelabel = "condition met"

[[record]]
residuechange = "G23P"
discretelabel = "condition not met"

